- Tested on: MiaPaCa-2 cells
- protocol.summary: Measurement of intracellular NAD+ levels (cycling enzymatic assay)
- Format: cell-based, human
- run.conditions: 24 h, 100 μM of inhibitor, SD < 20%
measure.name: iNAD+ Depletion (%)
Write the number in % without appending the unit.

Solved entries (count: 5):
Known value: MiaPaCa-2 cells iNAD+ Depletion (%) of the compound COC[C@H]1N[C@@H](c2ccc(NC(=O)CCCC3CCN(S(=O)(=O)c4ccc(C(C)(C)C)cc4)CC3)cc2)[C@H](OC)[C@@H]1OC [Compound 26] equals 10

Known value: MiaPaCa-2 cells iNAD+ Depletion (%) of the compound COC[C@H]1N[C@@H](c2ccc(NC(=O)CCCC3CCN(C(=O)c4ccccc4)CC3)cc2)[C@H](OC)[C@@H]1OC [Compound 27] equals 0

Known value: MiaPaCa-2 cells iNAD+ Depletion (%) of the compound COC[C@H]1N[C@@H](c2ccc(NC(=O)CCCCCNC(=O)c3ccccc3)cc2)[C@H](OC)[C@@H]1OC [Compound 28] equals 3

Known value: MiaPaCa-2 cells iNAD+ Depletion (%) of the compound O=C(/C=C/c1cccnc1)NCCCCC1CCN(C(=O)c2ccccc2)CC1 [FK866, reference compound] equals 90

Known value: MiaPaCa-2 cells iNAD+ Depletion (%) of the compound O=C(CCCCCNC(=O)c1ccccc1)Nc1ccc([C@@H]2N[C@H](CO)[C@@H](O)[C@H]2O)cc1 [Compound 23] equals 5

Further cases:
Known value: MiaPaCa-2 cells iNAD+ Depletion (%) of the compound COC[C@H]1N[C@@H](c2ccc(NC(=O)c3ccc(CNS(=O)(=O)c4ccc(C(C)(C)C)cc4)cc3)cc2)[C@H](OC)[C@@H]1OC [Compound 29] equals 79

Known value: MiaPaCa-2 cells iNAD+ Depletion (%) of the compound CC(C)(C)c1ccc(S(=O)(=O)N2CCC(CCCC(=O)Nc3ccccc3)CC2)cc1 [Compound 34] equals 6
